- system tested: BLK (Homo sapiens, UniProt P51451)
- Sequence (P51451 whole entry): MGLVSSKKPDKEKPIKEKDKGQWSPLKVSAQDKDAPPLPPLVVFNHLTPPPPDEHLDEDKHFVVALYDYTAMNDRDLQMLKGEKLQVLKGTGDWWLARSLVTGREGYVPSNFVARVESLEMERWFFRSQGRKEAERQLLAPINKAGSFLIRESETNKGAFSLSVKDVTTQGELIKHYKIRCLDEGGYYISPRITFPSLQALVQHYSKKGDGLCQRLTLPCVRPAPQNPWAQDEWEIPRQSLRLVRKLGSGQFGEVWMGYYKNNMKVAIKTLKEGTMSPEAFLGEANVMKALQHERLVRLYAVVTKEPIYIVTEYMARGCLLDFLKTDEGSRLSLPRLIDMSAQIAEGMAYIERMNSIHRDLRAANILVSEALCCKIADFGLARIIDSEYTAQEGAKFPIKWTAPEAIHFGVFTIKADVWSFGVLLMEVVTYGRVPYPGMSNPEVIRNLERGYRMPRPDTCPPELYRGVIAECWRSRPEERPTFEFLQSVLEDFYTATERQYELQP
measurement label: IC50

INSERT INTO assay_data (compound_smiles, system_tested, measurement_label, measured) VALUES
  ('COc1cc2c(Oc3ccc(NC(=O)C4(C(=O)Nc5ccc(F)cc5)CC4)cc3)ccnc2cc1OC(=O)N1CCN(C)CC1', 'BLK (Homo sapiens, UniProt P51451)', 'IC50', '> 1 µM');

---

- system tested: LOK/STK10 (Homo sapiens, UniProt O94804)
- Sequence (O94804 whole entry): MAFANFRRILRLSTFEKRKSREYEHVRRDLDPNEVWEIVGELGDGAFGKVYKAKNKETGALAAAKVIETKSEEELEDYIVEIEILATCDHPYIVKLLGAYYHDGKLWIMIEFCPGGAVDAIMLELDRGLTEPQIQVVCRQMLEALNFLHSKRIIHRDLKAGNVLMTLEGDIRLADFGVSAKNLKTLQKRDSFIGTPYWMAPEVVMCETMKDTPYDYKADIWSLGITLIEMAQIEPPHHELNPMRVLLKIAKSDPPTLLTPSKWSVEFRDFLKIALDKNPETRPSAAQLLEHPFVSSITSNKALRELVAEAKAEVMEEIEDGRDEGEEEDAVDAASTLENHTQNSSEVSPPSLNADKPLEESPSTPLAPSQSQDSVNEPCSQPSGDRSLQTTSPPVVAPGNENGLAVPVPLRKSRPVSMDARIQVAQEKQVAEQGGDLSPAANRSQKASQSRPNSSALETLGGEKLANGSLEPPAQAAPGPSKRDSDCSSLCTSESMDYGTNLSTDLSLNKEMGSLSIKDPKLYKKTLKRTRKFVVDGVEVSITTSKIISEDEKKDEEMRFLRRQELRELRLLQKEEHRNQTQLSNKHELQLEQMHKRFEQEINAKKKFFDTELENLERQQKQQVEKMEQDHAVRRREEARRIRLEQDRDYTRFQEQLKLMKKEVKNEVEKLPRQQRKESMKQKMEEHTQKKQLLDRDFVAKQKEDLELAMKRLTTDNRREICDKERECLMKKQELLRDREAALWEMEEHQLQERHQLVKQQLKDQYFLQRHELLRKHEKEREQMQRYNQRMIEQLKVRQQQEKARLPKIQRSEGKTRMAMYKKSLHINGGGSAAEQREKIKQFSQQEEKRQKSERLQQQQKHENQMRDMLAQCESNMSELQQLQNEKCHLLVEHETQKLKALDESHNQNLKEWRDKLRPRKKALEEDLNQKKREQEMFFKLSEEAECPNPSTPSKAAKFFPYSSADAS
- protocol summary: HotSpot Kinase Assay, LOK/STK10
IC50 overview
measurement label: IC50

INSERT INTO assay_data (compound_smiles, measurement_label, measured) VALUES
  ('COc1cc2c(Oc3ccc(NC(=O)C4(C(=O)Nc5ccc(F)cc5)CC4)cc3)ncnc2cc1OC(=O)N1CCN(C)C[C@H]1C', 'IC50', '> 1000 nM'),
  ('COc1cc2nccc(Oc3ccc(NC(=O)C4(C(=O)Nc5ccc(F)cc5)CC4)cc3)c2cc1OC(=O)N1CCNCC1(C)C', 'IC50', '100 to 1000 nM'),
  ('COc1cc2c(Oc3ccc(NC(=O)C4(C(=O)Nc5ccc(F)cc5)CC4)cc3)ccnc2cc1OC(=O)N1[C@H](C)CNC[C@@H]1C', 'IC50', '100 to 1000 nM'),
  ('COc1cc2c(Oc3ccc(NC(=O)C4(C(=O)Nc5ccc(F)cc5)CC4)cc3)ccnc2cc1OC(=O)N1C[C@H]2C[C@@H]1CN2C', 'IC50', '100 to 1000 nM'),
  ('COc1cc2nccc(Oc3ccc(NC(=O)C4(C(=O)Nc5ccc(F)cc5)CC4)cc3)c2cc1OC(=O)N1CCNC[C@H]1C', 'IC50', '< 100 nM'),
  ('COc1cc2c(Oc3ccc(NC(=O)C4(C(=O)Nc5ccc(F)cc5)CC4)cc3)ccnc2cc1OC(=O)N1CC[C@H](O)C1', 'IC50', '100 to 1000 nM');

---

This section presents compounds with their documented pIC50 values.
- system tested: TYRO3/SKY (Homo sapiens)
- Sequence (Q06418 41-890): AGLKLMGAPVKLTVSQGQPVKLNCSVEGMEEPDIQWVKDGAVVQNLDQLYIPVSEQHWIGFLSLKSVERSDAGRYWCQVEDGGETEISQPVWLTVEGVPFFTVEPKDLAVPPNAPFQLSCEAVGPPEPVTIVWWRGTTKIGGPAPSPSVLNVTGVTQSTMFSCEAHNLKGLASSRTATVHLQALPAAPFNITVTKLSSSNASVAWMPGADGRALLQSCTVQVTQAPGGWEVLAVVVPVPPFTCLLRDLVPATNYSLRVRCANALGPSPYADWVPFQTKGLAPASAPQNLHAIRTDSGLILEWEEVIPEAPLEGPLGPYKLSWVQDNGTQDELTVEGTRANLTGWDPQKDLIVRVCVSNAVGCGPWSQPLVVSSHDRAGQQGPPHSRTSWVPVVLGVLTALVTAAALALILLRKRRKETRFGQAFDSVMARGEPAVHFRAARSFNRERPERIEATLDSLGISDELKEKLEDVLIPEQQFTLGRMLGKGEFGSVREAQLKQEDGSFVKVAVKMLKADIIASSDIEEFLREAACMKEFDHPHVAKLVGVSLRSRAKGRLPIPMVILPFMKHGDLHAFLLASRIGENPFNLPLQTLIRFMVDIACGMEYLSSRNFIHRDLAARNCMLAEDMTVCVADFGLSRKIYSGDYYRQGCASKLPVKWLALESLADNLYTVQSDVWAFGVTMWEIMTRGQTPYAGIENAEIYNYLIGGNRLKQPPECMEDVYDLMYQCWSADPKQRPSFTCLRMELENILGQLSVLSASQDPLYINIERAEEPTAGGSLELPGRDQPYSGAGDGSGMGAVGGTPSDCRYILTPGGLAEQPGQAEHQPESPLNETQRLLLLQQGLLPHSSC
- protocol summary: HotSpot Kinase Assay, TYRO3/SKY
pIC50: −log10 of the molar value.
measurement label: pIC50

INSERT INTO measurements (compound_smiles, measured) VALUES
  ('COc1cc2c(Oc3ccc(NC(=O)C4(C(=O)Nc5ccc(F)cc5)CC4)cc3F)ccnc2cc1OC(=O)N1CCN(C)C[C@@H]1C', '6.00 to 7.00'),
  ('COc1cc2c(Oc3ccc(NC(=O)C4(C(=O)Nc5ccc(F)cc5)CC4)cc3)ccnc2cc1OC(=O)N1[C@H](C)CN(C)C[C@@H]1C', '6.00 to 7.00'),
  ('COc1cc2c(Oc3ccc(NC(=O)C4(C(=O)Nc5ccc(F)cc5)CC4)cc3)ccnc2cc1OC(=O)N1CCN(C)CC1(C)C', '6.00 to 7.00'),
  ('COc1cc2c(Oc3ccc(NC(=O)C4(C(=O)Nc5ccc(F)cc5)CC4)cc3)ccnc2cc1OC(=O)N1CCC(F)(F)CC1', '< 6.00'),
  ('COc1cc2c(Oc3ccc(NC(=O)C4(C(=O)Nc5ccc(F)cc5)CC4)cc3)ccnc2cc1OC(=O)N1CCN(C)C[C@H]1C', '6.00 to 7.00'),
  ('COc1cc2c(Oc3ccc(NC(=O)C4(C(=O)Nc5ccc(F)cc5)CC4)cc3)ccnc2cc1OC(=O)N1CCNC[C@H]1C', '6.00 to 7.00'),
  ('COc1cc2c(Oc3ccc(NC(=O)C4(C(=O)Nc5ccc(F)cc5)CC4)cc3)ccnc2cc1OC(=O)N1CCOCC1', '< 6.00');
